run description: Ketoconazole concentration in plasma and ocular tissues after single topical ocular instillation
Assay type: in vivo, Sprague Dawley rats
conditions used: Sprague Dawley, rat, vitreous humour, topical, 150 μg per eye, rat vitreous humour, right eye, 5 min post-dose, 150 μg per eye; read-out: mean concentration in vitreous humour, right eye
measured metric: concentration at 5 min
Returns: string containing the numeric result and its unit.

Incoming: Can you look up the measured concentration at 5 min of CC(=O)N1CCN(c2ccc(OCC3COC(Cn4ccnc4)(c4ccc(Cl)cc4Cl)O3)cc2)CC1 (stereo not shown) [Ketoconazole] for me?
Outgoing: 1180 ng/g

###

run description: Ketoconazole concentration in plasma and ocular tissues after single topical ocular instillation
Assay type: in vivo, Sprague Dawley rats
conditions used: Sprague Dawley, rat, cornea, topical, 300 μg per rat, rat cornea, mean of left and right eye, 30 min post-dose; read-out: mean concentration in cornea
measured metric: concentration at 30 min
Returns: string containing the numeric result and its unit.

Incoming: Can you look up the measured concentration at 30 min of CC(=O)N1CCN(c2ccc(OCC3COC(Cn4ccnc4)(c4ccc(Cl)cc4Cl)O3)cc2)CC1 (stereo not shown) [Ketoconazole] for me?
Outgoing: 113000 ng/g

###

run description: Ketoconazole concentration in plasma and ocular tissues after single topical ocular instillation
Assay type: in vivo, Sprague Dawley rats
conditions used: Sprague Dawley, rat, cornea, topical, 300 μg per rat, mean ketoconazole concentration in cornea, rat cornea, mean of left and right eye, 120 min post-dose
measured metric: concentration at 120 min
Returns: string containing the numeric result and its unit.

Incoming: Can you look up the measured concentration at 120 min of CC(=O)N1CCN(c2ccc(OCC3COC(Cn4ccnc4)(c4ccc(Cl)cc4Cl)O3)cc2)CC1 (stereo not shown) [Ketoconazole] for me?
Outgoing: 8360 ng/g

###

run description: Ketoconazole concentration in plasma and ocular tissues after single topical ocular instillation
Type: in vivo, Sprague Dawley rats
conditions used: Sprague Dawley, rat, vitreous humour, topical, 300 μg per rat, mean ketoconazole concentration in vitreous humour, rat vitreous humour, mean of left and right eye, 120 min post-dose
Experimental: The mixture was stirred at 40 °C. Subsequently, 0.040 mL of 1 M hydrochloric acid was added, and the mixture was stirred at 40 °C until it was completely dissolved. 0.250 mL of hydroxypropyl beta-cyclodextrin (HPβCD) was added and vortexed and stirred at 40 °C until clear. […] The quantitative sample analysis was performed on a Shimadzu LC-20AD (Shimadzu, Japan) - API 4000 mass spectrometer (SCIEX, Canada).
measured metric: concentration at 120 min (ng/g)
Just the number please, in ng/g, no unit attached.

Incoming: Can you look up the measured concentration at 120 min of CC(=O)N1CCN(c2ccc(OCC3COC(Cn4ccnc4)(c4ccc(Cl)cc4Cl)O3)cc2)CC1 (stereo not shown) for me?
Outgoing: 116

###

run description: Ketoconazole concentration in plasma and ocular tissues after single topical ocular instillation
Format: in vivo, Sprague Dawley rats
conditions used: Sprague Dawley, rat, cornea, topical, 150 μg per eye, rat cornea, right eye, 5 min post-dose, 150 μg per eye; read-out: mean concentration in cornea, right eye
measured metric: concentration at 5 min (ng/g)
Just the number please, in ng/g, no unit attached.

Incoming: Can you look up the measured concentration at 5 min of CC(=O)N1CCN(c2ccc(OCC3COC(Cn4ccnc4)(c4ccc(Cl)cc4Cl)O3)cc2)CC1 (stereo not shown) for me?
Outgoing: 430000

###

run description: Ketoconazole concentration in plasma and ocular tissues after single topical ocular instillation
Format: in vivo, Sprague Dawley rats
conditions used: Sprague Dawley, rat, plasma, topical, 300 μg per rat, mean ketoconazole concentration in plasma, rat plasma, 120 min post-dose, 300 μg/rat topical ocular
measured metric: concentration at 120 min (ng/mL)
Just the number please, in ng/mL, no unit attached.

Incoming: Can you look up the measured concentration at 120 min of CC(=O)N1CCN(c2ccc(OCC3COC(Cn4ccnc4)(c4ccc(Cl)cc4Cl)O3)cc2)CC1 (stereo not shown) for me?
Outgoing: 38.4

###

run description: Ketoconazole concentration in plasma and ocular tissues after single topical ocular instillation
Format: in vivo, Sprague Dawley rats
conditions used: Sprague Dawley, rat, retina, topical, 300 μg per rat, mean ketoconazole concentration in retina, rat retina, 5 min post-dose, 300 μg/rat topical ocular
Procedure: The mixture was stirred at 40 °C. Subsequently, 0.040 mL of 1 M hydrochloric acid was added, and the mixture was stirred at 40 °C until it was completely dissolved. 0.250 mL of hydroxypropyl beta-cyclodextrin (HPβCD) was added and vortexed and stirred at 40 °C until clear. […] The quantitative sample analysis was performed on a Shimadzu LC-20AD (Shimadzu, Japan) - API 4000 mass spectrometer (SCIEX, Canada).
measured metric: concentration at 5 min (ng/g)
Just the number please, in ng/g, no unit attached.

Incoming: Can you look up the measured concentration at 5 min of CC(=O)N1CCN(c2ccc(OCC3COC(Cn4ccnc4)(c4ccc(Cl)cc4Cl)O3)cc2)CC1 (stereo not shown) [Ketoconazole] for me?
Outgoing: 4960

###

run description: Ketoconazole concentration in plasma and ocular tissues after single topical ocular instillation
Assay type: in vivo, Sprague Dawley rats
conditions used: Sprague Dawley, rat, retina, topical, 150 μg per eye, rat retina, right eye, 5 min post-dose, 150 μg per eye; read-out: mean concentration in retina, right eye
measured metric: concentration at 5 min (ng/g)
Just the number please, in ng/g, no unit attached.

Incoming: Can you look up the measured concentration at 5 min of CC(=O)N1CCN(c2ccc(OCC3COC(Cn4ccnc4)(c4ccc(Cl)cc4Cl)O3)cc2)CC1 (stereo not shown) for me?
Outgoing: 552

###

run description: Ketoconazole concentration in plasma and ocular tissues after single topical ocular instillation
Assay type: in vivo, Sprague Dawley rats
conditions used: Sprague Dawley, rat, vitreous humour, topical, 300 μg per rat, mean ketoconazole concentration in vitreous humour, rat vitreous humour, 5 min post-dose, 300 μg/rat topical ocular
Experimental: The mixture was stirred at 40 °C. Subsequently, 0.040 mL of 1 M hydrochloric acid was added, and the mixture was stirred at 40 °C until it was completely dissolved. 0.250 mL of hydroxypropyl beta-cyclodextrin (HPβCD) was added and vortexed and stirred at 40 °C until clear. […] The quantitative sample analysis was performed on a Shimadzu LC-20AD (Shimadzu, Japan) - API 4000 mass spectrometer (SCIEX, Canada).
measured metric: concentration at 5 min (ng/g)
Just the number please, in ng/g, no unit attached.

Incoming: Can you look up the measured concentration at 5 min of CC(=O)N1CCN(c2ccc(OCC3COC(Cn4ccnc4)(c4ccc(Cl)cc4Cl)O3)cc2)CC1 (stereo not shown) for me?
Outgoing: 1190

###

run description: Ketoconazole concentration in plasma and ocular tissues after single topical ocular instillation
Type: in vivo, Sprague Dawley rats
conditions used: Sprague Dawley, rat, cornea, topical, 150 μg per eye, rat cornea, left eye, 5 min post-dose, 150 μg per eye; read-out: mean concentration in cornea, left eye
measured metric: concentration at 5 min (ng/g)
Just the number please, in ng/g, no unit attached.

Incoming: Can you look up the measured concentration at 5 min of CC(=O)N1CCN(c2ccc(OCC3COC(Cn4ccnc4)(c4ccc(Cl)cc4Cl)O3)cc2)CC1 (stereo not shown) for me?
Outgoing: 416000

###

run description: Ketoconazole concentration in plasma and ocular tissues after single topical ocular instillation
Format: in vivo, Sprague Dawley rats
conditions used: Sprague Dawley, rat, plasma, topical, 300 μg per rat, rat plasma, 5 min post-dose; read-out: mean concentration in plasma
measured metric: concentration at 5 min (ng/mL)
Just the number please, in ng/mL, no unit attached.

Incoming: Can you look up the measured concentration at 5 min of CC(=O)N1CCN(c2ccc(OCC3COC(Cn4ccnc4)(c4ccc(Cl)cc4Cl)O3)cc2)CC1 (stereo not shown) for me?
Outgoing: 445

###

run description: Ketoconazole concentration in plasma and ocular tissues after single topical ocular instillation
Type: in vivo, Sprague Dawley rats
conditions used: Sprague Dawley, rat, vitreous humour, topical, 150 μg per eye, rat vitreous humour, left eye, 5 min post-dose, 150 μg per eye; read-out: mean concentration in vitreous humour, left eye
measured metric: concentration at 5 min (ng/g)
Just the number please, in ng/g, no unit attached.

Incoming: Can you look up the measured concentration at 5 min of CC(=O)N1CCN(c2ccc(OCC3COC(Cn4ccnc4)(c4ccc(Cl)cc4Cl)O3)cc2)CC1 (stereo not shown) for me?
Outgoing: 1120

###

run description: Ketoconazole concentration in plasma and ocular tissues after single topical ocular instillation
Type: in vivo, Sprague Dawley rats
conditions used: Sprague Dawley, rat, vitreous humour, topical, 300 μg per rat, rat vitreous humour, mean of left and right eye, 30 min post-dose; read-out: mean concentration in vitreous humour
measured metric: concentration at 30 min (ng/g)
Just the number please, in ng/g, no unit attached.

Incoming: Can you look up the measured concentration at 30 min of CC(=O)N1CCN(c2ccc(OCC3COC(Cn4ccnc4)(c4ccc(Cl)cc4Cl)O3)cc2)CC1 (stereo not shown) for me?
Outgoing: 713

###

run description: Ketoconazole concentration in plasma and ocular tissues after single topical ocular instillation
Assay type: in vivo, Sprague Dawley rats
conditions used: Sprague Dawley, rat, cornea, topical, 300 μg per rat, mean ketoconazole concentration in cornea, rat cornea, 5 min post-dose, 300 μg/rat topical ocular
measured metric: concentration at 5 min

Incoming: Can you look up the measured concentration at 5 min of CC(=O)N1CCN(c2ccc(OCC3COC(Cn4ccnc4)(c4ccc(Cl)cc4Cl)O3)cc2)CC1 (stereo not shown) [Ketoconazole] for me?
Outgoing: 423000 ng/g
